FYI, the data here is from patent US20250019450A1.

# Lookup of reported Max Absorbance keyed by entry
# tested on: human IL-12 receptor (IL-12Rβ1 and IL-12Rβ2) on HEK-Blue IL-12 cells (human, UniProt P42701 24-662; Q99665 24-862)
# Sequence (Q99665 24-862, chain 2 of 2, other chains not shown): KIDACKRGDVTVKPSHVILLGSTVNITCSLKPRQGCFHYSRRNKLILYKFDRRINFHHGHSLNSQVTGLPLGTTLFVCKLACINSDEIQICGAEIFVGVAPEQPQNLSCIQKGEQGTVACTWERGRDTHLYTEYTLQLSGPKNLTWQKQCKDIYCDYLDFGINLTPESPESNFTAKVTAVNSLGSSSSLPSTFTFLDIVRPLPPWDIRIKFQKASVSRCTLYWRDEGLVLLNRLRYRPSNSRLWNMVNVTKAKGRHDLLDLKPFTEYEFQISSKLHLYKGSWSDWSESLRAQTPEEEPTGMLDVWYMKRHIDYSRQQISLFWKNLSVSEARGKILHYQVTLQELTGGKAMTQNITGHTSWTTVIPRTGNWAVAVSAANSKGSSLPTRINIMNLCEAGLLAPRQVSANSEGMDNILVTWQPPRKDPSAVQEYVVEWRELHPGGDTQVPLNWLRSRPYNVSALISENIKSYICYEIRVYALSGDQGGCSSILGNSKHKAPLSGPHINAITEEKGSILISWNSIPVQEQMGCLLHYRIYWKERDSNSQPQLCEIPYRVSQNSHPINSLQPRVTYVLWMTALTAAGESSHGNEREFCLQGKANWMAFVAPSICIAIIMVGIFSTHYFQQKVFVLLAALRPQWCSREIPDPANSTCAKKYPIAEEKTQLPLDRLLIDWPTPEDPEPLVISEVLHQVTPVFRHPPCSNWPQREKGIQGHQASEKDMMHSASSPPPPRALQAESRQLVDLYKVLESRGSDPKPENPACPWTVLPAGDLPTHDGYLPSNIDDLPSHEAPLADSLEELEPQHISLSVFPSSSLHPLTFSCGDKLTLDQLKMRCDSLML
# measurement protocol: cell-based or functional assay
Lab note: write the figure by itself, no unit.

In the examples that follow, each entry is paired with its recorded Max Absorbance.
binder	measured result
DGL508 (bispecific antibody, V domains shown) V domain 1: EVQLVESGGGLVQAGGSLRLSCAASGLTFRNYAMAWFRQAPGKEREFVAGITWGGGLTHYVDSVKGRFTISRDNGKNTVYLQMNSLKSEDTAVYYCAGKTQGSTWYHLTPDGYDYWGQGTQVTVEP V domain 2: QVQLVESGGGLVQAGGSLRLSCAASGRTFSRYIMGWFRQATGKEREFVAAISWSGLSTHYADSVQGRFTISRDNAENTVYLQMNSLKPEDTAVYYCAADRHWETRLLPREYDYWGQGTQVTVEP	0.28
DGL484 (bispecific antibody, V domains shown) V domain 1: QVQLVESGGGLVQAGGSLRLSCAASARIFNSYAVAWFRQTPGKEREFVASISWSGGSTNYADSVKGRFTISRDNAKNTVFLQMNSLKPADTAVYYCAADRNYYPSVLGKYTYWGQGTQVTVEP V domain 2: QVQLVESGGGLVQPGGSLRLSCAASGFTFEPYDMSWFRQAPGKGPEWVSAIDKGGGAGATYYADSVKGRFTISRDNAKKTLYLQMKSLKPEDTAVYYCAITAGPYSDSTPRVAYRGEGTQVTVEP	0.54

Read the next record carefully.
What value of measured Max Absorbance is listed for DGL504 (bispecific antibody, V domains shown) V domain 1: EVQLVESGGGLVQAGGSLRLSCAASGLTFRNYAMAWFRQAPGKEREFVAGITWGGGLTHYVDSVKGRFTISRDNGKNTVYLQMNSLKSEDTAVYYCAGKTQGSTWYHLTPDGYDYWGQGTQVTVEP V domain 2: QVQLVESGGGLVQAGGSLRLSCAASGRTFSSYAMGWFRQAPGKEREFVSAISWSGLSTYYVESVQGRFTISRDNAKNTVYLQMNSLKPEDTAVYYCAASRIYTNYVARSYEYDDWGQGTQVTVEP ?
0.41
